target: EfBChE (butyrylcholinesterase from equine serum) (Equus caballus, UniProt P81908); construct: EfBChE from equine serum (Equus ferus); from tissue; host or cells: equine serum; experiment: biochemical; assay type: biochemical; details: ratio of EfBChE to EeAChE IC50 values
Sequence (P81908 whole entry): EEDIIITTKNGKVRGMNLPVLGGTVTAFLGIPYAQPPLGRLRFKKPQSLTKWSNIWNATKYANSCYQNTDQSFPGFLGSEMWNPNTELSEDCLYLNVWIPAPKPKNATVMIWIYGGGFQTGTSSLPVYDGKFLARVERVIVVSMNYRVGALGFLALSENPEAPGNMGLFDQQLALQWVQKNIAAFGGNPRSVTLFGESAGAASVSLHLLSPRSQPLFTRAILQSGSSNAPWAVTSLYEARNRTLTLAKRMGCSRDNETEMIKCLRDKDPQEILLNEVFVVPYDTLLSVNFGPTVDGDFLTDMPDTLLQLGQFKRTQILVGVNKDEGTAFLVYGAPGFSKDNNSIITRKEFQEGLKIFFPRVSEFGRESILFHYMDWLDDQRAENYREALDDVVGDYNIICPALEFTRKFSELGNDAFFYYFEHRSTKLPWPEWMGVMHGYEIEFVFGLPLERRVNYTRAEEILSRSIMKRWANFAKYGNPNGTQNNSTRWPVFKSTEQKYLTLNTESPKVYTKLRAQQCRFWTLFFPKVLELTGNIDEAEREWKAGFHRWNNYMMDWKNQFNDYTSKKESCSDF
Measured SI, selectivity index based on IC50 values (EeAChE vs EfBChE) of individual entries
No unit in the answer, please; the number alone is enough.

Worked examples, 5 compounds total:
[
  {
    "COMPOUND": "COc1cc2c(cc1OCc1ccc(Br)cc1F)C(=O)C(CC1CCN(Cc3ccccc3)CC1)C2 (centres unmarked)",
    "ASSAYED_TARGET": "EfBChE (butyrylcholinesterase from equine serum) (Equus caballus, UniProt P81908)",
    "NUMERIC_VALUE": 6.9
  },
  {
    "COMPOUND": "COc1ccc(COc2cc3c(cc2OC)CC(CC2CCN(Cc4ccccc4)CC2)C3=O)cc1 (centres unmarked)",
    "ASSAYED_TARGET": "EfBChE (butyrylcholinesterase from equine serum) (Equus caballus, UniProt P81908)",
    "NUMERIC_VALUE": 5.2
  },
  {
    "COMPOUND": "COc1cc2c(cc1OCc1ccccc1)C(=O)C(CC1CCN(Cc3ccccc3)CC1)C2 (centres unmarked)",
    "ASSAYED_TARGET": "EfBChE (butyrylcholinesterase from equine serum) (Equus caballus, UniProt P81908)",
    "NUMERIC_VALUE": 5.4
  },
  {
    "COMPOUND": "COc1cc2c(cc1O)C(=O)C(CC1CCN(Cc3ccccc3)CC1)C2 (centres unmarked)",
    "ASSAYED_TARGET": "EfBChE (butyrylcholinesterase from equine serum) (Equus caballus, UniProt P81908)",
    "NUMERIC_VALUE": 11
  },
  {
    "COMPOUND": "COc1cc2c(cc1OCCN)C(=O)C(CC1CCN(Cc3ccccc3)CC1)C2 (centres unmarked)",
    "ASSAYED_TARGET": "EfBChE (butyrylcholinesterase from equine serum) (Equus caballus, UniProt P81908)",
    "NUMERIC_VALUE": 23
  }
]

// query Bench note: what SI, selectivity index based on IC50 values (EeAChE vs EfBChE) did CCCOc1cc2c(cc1OC)CC(CC1CCN(Cc3ccccc3)CC1)C2=O (centres unmarked) show?
// result 15

// query Could you do the same for COc1cc2c(cc1OCc1ccccc1C(F)(F)F)C(=O)C(CC1CCN(Cc3ccccc3)CC1)C2 (centres unmarked) , please?
// result 7.8

// query Could you do the same for COc1cc2c(cc1OCCCl)C(=O)C(CC1CCN(Cc3ccccc3)CC1)C2 (centres unmarked) , please?
// result 22
